Measured values drawn from patent US4771041A for this set.

# target or test system: HTLV-III reverse transcriptase (Human immunodeficiency virus type 1 group M subtype B, UniProt P03366)
# assay explanation: HTLV-III reverse transcriptase assay
# experimental conditions: purified enzyme from different virus isolates; (dT)15.(A)n template primer; read-out: concentration causing 50% inhibition of HTLV-III reverse transcriptase activity
pIC50: −log10 of the molar value.

{"smiles": "O=C(O)P(=O)(O)O", "pIC50": "5.70 to 7.00"}

----------
# Test system: visna virus
# assay explanation: Visna virus growth in sheep choroid plexus (SCP) cells: virus titre and morphological changes
# Format: cell-based
# experimental conditions: Visna-maedi virus, 120 h; SCP cells; virus titre 5 days after infection; read-out: concentration giving 50 percent reduction of virus multiplication

{"compound": "O=C(O)P(=O)(O)O [phosphonoformic acid]", "IC50": "20 µM"}

----------
# assay explanation: Acute toxicity in mice
# Design: species or system male mice of NMRI strain
# experimental conditions: mouse, in vivo, ip, as sodium salt, male NMRI mice

{"compound": "O=C(O)P(=O)(O)O [phosphonoformic acid]", "LD50": "2000 to 4000 µmol/kg"}
